All figures here come from PubChem BioAssay (NCI).

System: NCI-H522 lung
Experiment: NCI tumour cell line growth inhibition, 48 h
Recorded endpoint: TGI (µM)

CC(C)(C)C1=C(Br)C(F)(C(C)(C)C)OP1(=O)c1ccccc1 (stereo not given) : 30.8
Cc1cc(OCc2nnc3n2S(=O)(=O)c2ccccc2N3C)ccc1Cl : 45.6
CCCCCCN(CCCCCC)CCC(=O)c1ccc2cc(Br)c3ccccc3c2c1 : 87.1
O=C(c1c(F)c(F)c(F)c(F)c1F)c1c(F)c(F)c(F)c(F)c1F : 0.392

* * *

Test system: M14 melanoma
Assay: NCI tumour cell line growth inhibition, 48 h; in the data active = GI50 below about 0.43 µM; inactive = the rest
Labels: active, inactive

CC(=O)O.CN1[CH-]N(Cc2ccc(C#N)cc2)c2ccccc21.[Ag+] : inactive
COc1ccc2c(c1)c(-c1nc(-c3cn(C)c4ccncc34)cs1)cn2C : inactive
C=C(C)[C@@H]1CC[C@]2(CO)CC[C@]3(C)[C@H](CC[C@@H]4[C@@]5(C)CCCNC(C)(C)[C@@H]5CC[C@]43C)[C@@H]12 : inactive
O=S(=O)(N=C1C(Cl)=C(Cl)C(=NS(=O)(=O)c2ccccc2)C(Cl)=C1Cl)c1ccccc1 : inactive
Cc1cc2c(F)c(Oc3ncnc(Nc4ccc(N5C[C@@H](C)N[C@@H](C)C5)cc4)c3C#N)cc(F)c2[nH]1 : inactive
COc1ccc(Nc2nc(NCCNc3ccnc4cc(Cl)ccc34)nc(N3CCOCC3)n2)cc1 : inactive
COc1cnc2c(c1)C(=O)c1c-2n(CCCN2CCCC2)c(=O)c2cc([N+](=O)[O-])ccc12 : active

* * *

System: SK-OV-3 ovarian
Assay: NCI tumour cell line growth inhibition, 48 h
Recorded endpoint: TGI (µM)

CCOC(=O)c1[nH]c2cc(Cl)ccc2c1[C@@H](C(=O)NC(C)(C)C)N(CC)C(=O)CCCCC#Cc1cccc2c1CN(C1CCC(=O)NC1=O)C2=O (some centres undefined) : 16.9
COc1ccc(-c2ncnc3c2ncn3CC#CCCl)cc1 : 22.7
O=C(c1c(F)c(F)c(F)c(F)c1F)c1c(F)c(F)c(F)c(F)c1F : 5.57
COc1ccc2c(c1)c1c3c(ccc4ncn2c43)N(CCO)CCN=1 : 2.03
CSC(=O)C[C@@]12O[C@@H]([C@@H](C)C3CCC4[C@@H]5C(O)CC6=CC(=O)C=C[C@]6(C)C5CC[C@@]43C)C[C@](C)(O1)C(C)(C)O2 (some centres undefined) : 42.6
COc1ccc(C2CC(c3c(O)ccc4ccccc34)=NN2)cc1OC (centres undefined) : 28.8
C=C(C)[C@@H]1CC[C@]2(CO)CC[C@]3(C)[C@H](CC[C@@H]4[C@@]5(C)CCCNC(C)(C)[C@@H]5CC[C@]43C)[C@@H]12 : 3.49
Cc1cc(OCc2nnc3n2S(=O)(=O)c2ccccc2N3C)ccc1Cl : 37.4

* * *

Test system: HL-60(TB) leukemia
Assay: NCI tumour cell line growth inhibition, 48 h
Where a SMILES comes first, the peptide text is derived from it. [ ]: non-standard residue; d: D form. pGlu = O=C1CC[CH](C(=O)O)N1
Recorded endpoint: TGI

Nc1nc(Cl)cc(NCC2(CCO)CCC2)n1 : > 100 µM
COc1ccc(S(=O)(=O)Nc2ccc(-c3csc(N4C(=O)/C(=C/c5ccccc5[N+](=O)[O-])N=C4c4ccccc4)n3)cc2)cc1Cl : > 100 µM
COc1cc(-n2ccnc2-c2ccc3ccccc3c2)cc(OC)c1OC : > 37.6 µM
Cc1cccc(-c2nnc3s/c(=C\c4ccc(N(C)C)cc4)c(=O)n23)c1 : > 100 µM
O=C1CCCCCCC2=C1C(Sc1ccccc1)CC2 (stereo not given) : 36.2 µM
CN1C(=O)CCC(N2C(=O)c3cccc(NCCOCCOCCNC(=O)c4cc5c(o4)C(=O)c4ccccc4C5=O)c3C2=O)C1=O (stereo not given) : 5.88 µM
COC(=O)c1ccc(NCc2cc(OC)ccc2OC)cc1 : > 100 µM
ClCc1nc2ccccc2[nH]1 : > 100 µM
CC1=C(C#N)C23C(=O)N(c4ccccc4)C(=O)C2=C(O)C=CC3(O)N1Cc1ccc(Cl)cc1Cl (stereo not given) : 6.82 µM
COC(NC(=O)Nc1ccc(C)cc1)(C(F)(F)F)C(F)(F)F : > 100 µM
S=P1(Sc2ccccc2)Oc2ccc3ccccc3c2-c2c(ccc3ccccc23)O1 : > 100 µM
O=C1Nc2c(Cl)cc(Cl)cc2/C1=N/N=C/c1ccco1 : > 100 µM
O=[N+]([O-])c1nccn1CC(O)c1ccccc1 (stereo not given) : > 100 µM
CC(NC(=O)C1CCC(=O)N1)C(=O)N1CCCC1C(N)=O (stereo not drawn) ([pGlu]-Ala-Pro-NH2; configuration not given here) : > 100 µM
Cn1c(-c2ccco2)ccc1-c1ccc(C=O)o1 : 52.2 µM
C[C@H](Nc1nc(N)c(N=O)c(=O)n1C)C(=O)O : > 10 µM
O=c1[nH]c(Nc2ccc(Br)c(C(F)(F)F)c2)nc2nc[nH]c12 : > 100 µM
CCSC[C@@H]1C[C@](O)(c2ccc(Cl)cc2)[C@@H](c2ccc(Cl)cc2)O1 : 36 µM
COC(=O)[C@H](Cc1ccccc1)NC(=O)c1ccc(CNC(=O)/C=C/c2ccc(OCc3ccccc3)cc2)cc1 : 11.8 µM
COc1ccc(/C=N\N(C)Cc2cccc3ccsc23)cc1 : > 100 µM
C=CCC1(C(=O)OC)CCC/C(=N\O)C1 (stereo not given) : > 10 µM
CCOC(=O)C(NC(=O)c1cccc(Cl)c1)(Nc1ccc(S(=O)(=O)Nc2cc(C)on2)cc1)C(F)(F)F (stereo not given) : > 100 µM
COc1ccc(C2SCC(=O)N2c2ccc(-n3c(-c4ccccc4)nc4ccccc4c3=O)cc2)cc1 (stereo not given) : > 100 µM
COc1c2c(c3c(c1OC)c(=O)c1ccccc1n3C)OCO2 : > 100 µM
CCOC(=O)c1ccc(-n2cnc(-c3ccc([N+](=O)[O-])cc3)c2)cc1 : > 100 µM
Cc1ccc(CNc2ccc3nc(CCC4CCCCC4)[nH]c3c2)cc1 : 4.62 µM
S=C(NCc1ccccc1)Nc1sc(=NCc2ccccc2)nc2sc3c(c12)CCN(N1CCc2c(sc4nc(=NCc5ccccc5)sc(NC(=S)NCc5ccccc5)c24)C1)C3 : 42.4 µM
Cc1c(NC(=S)Nc2ccc([N+](=O)[O-])cc2)c(=O)n(-c2ccccc2)n1C : > 100 µM
CCOC(=O)c1c(O)cn2c1[nH]c1cccc3cccc2c31 : > 100 µM
CCC(CC)n1cnc2c(-c3cnc(N)cn3)nc(N3CC4CCC(C3)O4)nc21 : > 100 µM
COc1cc2nc(N3CCCN(C)CC3)nc(NC3CCN(Cc4ccccc4)CC3)c2cc1OC : 4.3 µM
CCN(CC)CCN(CC)CC.CCN(CC)CCN(CC)CC.[Cu+2].[Cu+2].[O-][Cl+3]([O-])([O-])[O-].[OH3+].[OH3+] : > 100 µM
Cc1cc2c(F)c(Oc3ncnc(Nc4ccc(N5C[C@@H](C)N[C@@H](C)C5)cc4)c3C#N)cc(F)c2[nH]1 : 3.95 µM
Cc1ccc(S(=O)(=O)n2cc(C=O)c(-c3cn(S(=O)(=O)c4ccc(C)cc4)cc3-c3cn(S(=O)(=O)c4ccc(C)cc4)cc3C=O)c2)cc1 : > 100 µM
CCCCCCCCCCCCSC(=S)c1c(C)[nH]n(-c2ccccc2)c1=O : 24.4 µM
Cc1nc(-c2ccccc2)cn2c1nc1ccccc12 : > 100 µM
CCN1CCN(CCNc2nccc(-c3c(-c4ccc(F)c(O)c4)nc4occn34)n2)S1(=O)=O : > 100 µM
CC(C)(C)c1cc(/C=C(\C#N)C2=NCCO2)cc(C(C)(C)C)c1O : 5.87 µM
COc1ccc2c(c1)c1c3c(ccc4ncn2c43)N(CCO)CCN=1 : 0.407 µM
Nc1nc(=O)n(C2CCC(CO)O2)cc1F (stereo not given) : > 100 µM
